test_system: 11β-HSD1 (Homo sapiens)
Construct: stably expressed in HEK-293 cells, cell lysate
Sequence (P28845 whole entry): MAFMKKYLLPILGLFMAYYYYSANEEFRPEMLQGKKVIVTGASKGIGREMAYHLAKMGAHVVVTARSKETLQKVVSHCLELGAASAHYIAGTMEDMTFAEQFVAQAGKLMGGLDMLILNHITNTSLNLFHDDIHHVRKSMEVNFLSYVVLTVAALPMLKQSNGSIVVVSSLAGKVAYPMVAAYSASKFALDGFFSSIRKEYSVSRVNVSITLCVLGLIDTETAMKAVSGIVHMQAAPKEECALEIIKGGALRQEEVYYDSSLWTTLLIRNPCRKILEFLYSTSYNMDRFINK
assay_remarks: radiolabeled cortisone to cortisol conversion, HEK-293 lysate
recorded_metric: IC50 (µM)
Record the value in µM, omitting the unit from your answer.

Which IC50 value is on record for CC(C)OC(=O)C(C)(C)Oc1ccc(C(=O)c2ccc(Cl)cc2)cc1 [fenofibrate] ?
3.8
